These measurements were taken from ChEMBL document CHEMBL1130231.

biological target: Gonadotropin-releasing hormone receptor (Rattus norvegicus, UniProt P30969); assay: Inhibition of binding of radiolabeled histrelin to Gonadotropin-releasing hormone receptor (GnRHr) in rat pituitary gland membranes
Sequence (P30969 whole entry): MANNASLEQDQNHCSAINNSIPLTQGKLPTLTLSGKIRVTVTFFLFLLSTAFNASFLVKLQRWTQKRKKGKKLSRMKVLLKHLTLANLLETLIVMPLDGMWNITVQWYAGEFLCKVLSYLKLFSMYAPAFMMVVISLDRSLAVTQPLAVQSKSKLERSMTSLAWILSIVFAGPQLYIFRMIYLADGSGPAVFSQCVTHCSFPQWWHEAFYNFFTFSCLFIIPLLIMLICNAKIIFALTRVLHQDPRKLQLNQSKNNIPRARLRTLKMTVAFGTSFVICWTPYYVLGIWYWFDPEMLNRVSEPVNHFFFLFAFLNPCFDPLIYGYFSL
Assay endpoint: IC50 (nM)
Field format: number, assumed nM, no unit text.

{"columns": ["Line notation", "Val"],
 "data": [
  ["CC(=O)Nc1ccc(C[C@H](NC(=O)[C@H](CO)NC(=O)[C@@H](Cc2cccnc2)NC(=O)[C@H](NC(=O)[C@@H](Cc2ccc3ccccc3c2)NC(C)=O)N(C)C(=O)c2ccc(Cl)cc2)C(=O)N[C@H](Cc2ccc(NC(C)=O)cc2)C(=O)N[C@@H](CC(C)C)C(=O)N[C@@H](CCCCNC(C)C)C(=O)N2CCC[C@H]2C(=O)N[C@H](C)C(N)=O)cc1", 1.2],
  ["CC(=O)Nc1ccc(C[C@H](NC(=O)[C@H](CO)NC(=O)[C@@H](Cc2cccnc2)NC(=O)[C@@H](Cc2ccc(Cl)cc2)NC(=O)[C@@H](Cc2ccc3ccccc3c2)NC(C)=O)C(=O)N[C@H](Cc2ccc(NC(C)=O)cc2)C(=O)N[C@@H](NC(=O)C(C)C)C(=O)N[C@@H](CCCCNC(C)C)C(=O)N2CCC[C@H]2C(=O)N[C@H](C)C(N)=O)cc1", 2]
]}

Tell me IC50 reported for `CC(=O)Nc1ccc(C[C@H](NC(=O)[C@H](CO)NC(=O)[C@@H](Cc2cccnc2)NC(=O)[C@@H](Cc2ccc(Cl)cc2)NC(=O)[C@H](NC(C)=O)NC(=O)c2ccc3ccccc3c2)C(=O)N[C@H](Cc2ccc(NC(C)=O)cc2)C(=O)N[C@@H](CC(C)C)C(=O)N[C@@H](CCCCNC(C)C)C(=O)N2CCC[C@H]2C(=O)N[C@H](C)C(N)=O)cc1`
0.88

* * *

target: Gonadotropin-releasing hormone receptor (Rattus norvegicus, UniProt P30969); assay: Inhibition of binding of radiolabeled histrelin to Gonadotropin-releasing hormone receptor (GnRHr) in rat pituitary gland membranes
Reported IC50 is given for each of the following compounds.
Numbers only; they are read as pM.

{"columns": ["Compound", "Result unit", "IC50"],
 "data": [
  ["CC(=O)Nc1ccc(C[C@H](NC(=O)[C@H](CO)NC(=O)[C@@H](Cc2cccnc2)NC(=O)[C@@H](NC(=O)[C@@H](Cc2ccc3ccccc3c2)NC(C)=O)N(C)C(=O)c2ccc(Cl)cc2)C(=O)N[C@H](Cc2ccc(NC(C)=O)cc2)C(=O)N[C@@H](CC(C)C)C(=O)N[C@@H](CCCCNC(C)C)C(=O)N2CCC[C@H]2C(=O)N[C@H](C)C(N)=O)cc1 (mixture of isomers)", "pM", 280000],
  ["CC(=O)Nc1ccc(C[C@H](NC(=O)[C@H](NC=O)NC(=O)[C@@H](Cc2cccnc2)NC(=O)[C@@H](Cc2ccc(Cl)cc2)NC(=O)[C@@H](Cc2ccc3ccccc3c2)NC(C)=O)C(=O)N[C@H](Cc2ccc(NC(C)=O)cc2)C(=O)N[C@@H](CC(C)C)C(=O)N[C@@H](CCCCNC(C)C)C(=O)N2CCC[C@H]2C(=O)N[C@H](C)C(N)=O)cc1", "pM", 840]
]}

Identify measured IC50 corresponding to CC(=O)Nc1ccc(C[C@H](NC(=O)[C@H](CO)NC(=O)[C@@H](Cc2cccnc2)NC(=O)[C@@H](Cc2ccc(Cl)cc2)NC(=O)[C@@H](NC(C)=O)N(C)C(=O)c2ccc3ccccc3c2)C(=O)N[C@H](Cc2ccc(NC(C)=O)cc2)C(=O)N[C@@H](CC(C)C)C(=O)N[C@@H](CCCCNC(C)C)C(=O)N2CCC[C@H]2C(=O)N[C@H](C)C(N)=O)cc1 (single isomer, unassigned)
300
